The origin of these recorded values is patent US20230095558A1.

Each record here notes measured koff.
system-under-test: T1, TIM3 protein (cat #CHI-MF-210T3-0050, Chimerigen)
T1 construct: Bought recombinant protein used in SPR; also called TLM3 protein
T1 sequence (Q8VIM0 20-193, change not shown): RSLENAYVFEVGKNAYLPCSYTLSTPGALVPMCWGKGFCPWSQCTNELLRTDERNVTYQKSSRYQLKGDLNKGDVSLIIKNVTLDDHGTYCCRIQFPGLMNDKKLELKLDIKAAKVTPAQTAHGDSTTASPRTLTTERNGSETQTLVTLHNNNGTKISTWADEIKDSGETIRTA
assay: SPR (OpenSPR), TIM3 protein immobilised on chip, peptide in flow
No end group written: not given here.
Value expressed in s⁻¹; do not type the unit.

Look over these answered cases.
ADFRVMADMSMY (Synthetic 12-mer from phage display screening) [P29-12-peptide (targeting TIM3)] | 0.00747
SPFYYSGHQWVPHPRQAASY (Synthetic 20-mer from phage display screening) [K10-20-peptide (targeting TIM3)] | 0.023
WQQNNPHLWDVFLGVPRTTE (Synthetic 20-mer from phage display screening) [K5-20-peptide (targeting TIM3)] | 0.016
GSWNTFRAQPTI (Synthetic 12-mer from phage display screening) [P24-12-peptide (targeting TIM3)] | 1.69e-05

The measured koff associated with HDAFPRPHLFRN (not fully specified) [P1301-12-peptide (targeting TIM3)] reads 0.00428

Briefly, koff measured for SHDTRSPFTWGR (Synthetic 12-mer from phage display screening) [P1307-12-peptide (targeting TIM3)] : 0.00789

Sample LTPHKHHKHLHA (Synthetic 12-mer from phage display screening) [P20-12-peptide (targeting TIM3)] ; koff observed: 0.00625
